Reference source for all entries: ChEMBL document CHEMBL4219190

test system: Candida albicans; experiment: Fungicidal activity against Candida albicans MTCC 3017 incubated for 24 hrs followed by transfer of microbial suspension to Sabouraud dextrose agar plates and measured after 24 hrs post transfer; assay type: functional; details: MTCC 3017, 24 h
I'd appreciate it if you could supply MFC values for the items below.
Form entry: enter the amount, then its unit.

Item: "O=C(c1nc(-c2ccccc2)c2c(C(F)(F)F)cc(-c3ccccc3)nc2n1)N1CCCC1" | System: Candida albicans | MFC: 15.6 µg/mL

Considering "O=C(NCc1ccccc1)c1nc(-c2ccccc2)c2c(C(F)(F)F)cc(-c3ccccc3)nc2n1" , its MFC with Candida albicans was recorded as 62.5 µg/mL

The molecule Clc1ccc(COC(Cn2ccnc2)c2ccc(Cl)cc2Cl)c(Cl)c1 (stereo not drawn) [MICONAZOLE] , tested on Candida albicans, showed MFC of 7.8 µg/mL

Measured MFC (Candida albicans), entry "CCCNC(=O)c1nc(-c2ccccc2)c2c(C(F)(F)F)cc(-c3ccccc3)nc2n1" : 15.6 µg/mL

MFC of "CN1CCN(C(=O)c2nc(-c3ccccc3)c3c(C(F)(F)F)cc(-c4ccccc4)nc3n2)CC1" , assay on Candida albicans, is 7.8 µg/mL

Assay Candida albicans, sample "COc1ccc(-c2nc(C(=O)N3CCN(C)CC3)nc3nc(-c4ccccc4)cc(C(F)(F)F)c23)cc1" , MFC read: 7.8 µg/mL

Observed MFC on Candida albicans, entry "O=C(NCCO)c1nc(-c2ccccc2)c2c(C(F)(F)F)cc(-c3ccccc3)nc2n1" , equals 62.5 µg/mL

Form field, MFC with Candida albicans, item "O=C(c1nc(-c2ccccc2)c2c(C(F)(F)F)cc(-c3ccccc3)nc2n1)N1CCN(CCO)CC1" : 7.8 µg/mL
